tested on: Human immunodeficiency virus; test: Inhibition of HIV reverse transcriptase activity expressed in Escherichia coli
Calls of active or inactive are those of the source. The calls are words filed in the database; no cut-off is given here.
READOUT: Activity

Below, 6 molecules whose answers are already recorded.
MOL	STUDY TARGET	Activity
O=C(Oc1cc(O)cc(O)c1C(=O)O)c1ccc(O)c(O)c1	Human immunodeficiency virus	inactive
COCCOCCOCCOC(=O)c1cc(O)c(O)c(O)c1	Human immunodeficiency virus	inactive
COCCOCCOc1c(C(=O)Oc2cc(C(=O)O)cc(O)c2O)ccc(O)c1O	Human immunodeficiency virus	inactive
COCCOCCOc1c(O)ccc(C(=O)Oc2cc(C(=O)O)cc(O)c2O)c1O	Human immunodeficiency virus	inactive
O=C(O)c1cc(O)c(O)c(O)c1	Human immunodeficiency virus	inactive
COCCOCCOC(=O)c1cc(O)c(O)c(OC(=O)c2ccc(O)c(O)c2O)c1	Human immunodeficiency virus	Active

What reported Activity corresponds to COCCOCCOCCOC(=O)c1cc(O)c(O)c(OC(=O)c2ccc(O)c(O)c2O)c1 on Human immunodeficiency virus?
Active

What reported Activity corresponds to COCCOCCOC(=O)c1cc(O)c(O)c(O)c1 on Human immunodeficiency virus?
inactive

---

target: DNA polymerase beta (Homo sapiens, UniProt P06746)
READOUT: Ki (µM)
Output spec: scalar in µM, unitless text.

What reported Ki corresponds to O=C(O)c1cc(O)c(O)c(OC(=O)c2cc(O)c(O)c(O)c2)c1 [DIGALLIC ACID] on DNA polymerase beta (Homo sapiens, UniProt P06746)?
0.39

---

target: DNA polymerase alpha catalytic subunit (Homo sapiens); experiment: Inhibition of DNA polymerase alpha from human KB3 cells
Sequence (P09884 whole entry): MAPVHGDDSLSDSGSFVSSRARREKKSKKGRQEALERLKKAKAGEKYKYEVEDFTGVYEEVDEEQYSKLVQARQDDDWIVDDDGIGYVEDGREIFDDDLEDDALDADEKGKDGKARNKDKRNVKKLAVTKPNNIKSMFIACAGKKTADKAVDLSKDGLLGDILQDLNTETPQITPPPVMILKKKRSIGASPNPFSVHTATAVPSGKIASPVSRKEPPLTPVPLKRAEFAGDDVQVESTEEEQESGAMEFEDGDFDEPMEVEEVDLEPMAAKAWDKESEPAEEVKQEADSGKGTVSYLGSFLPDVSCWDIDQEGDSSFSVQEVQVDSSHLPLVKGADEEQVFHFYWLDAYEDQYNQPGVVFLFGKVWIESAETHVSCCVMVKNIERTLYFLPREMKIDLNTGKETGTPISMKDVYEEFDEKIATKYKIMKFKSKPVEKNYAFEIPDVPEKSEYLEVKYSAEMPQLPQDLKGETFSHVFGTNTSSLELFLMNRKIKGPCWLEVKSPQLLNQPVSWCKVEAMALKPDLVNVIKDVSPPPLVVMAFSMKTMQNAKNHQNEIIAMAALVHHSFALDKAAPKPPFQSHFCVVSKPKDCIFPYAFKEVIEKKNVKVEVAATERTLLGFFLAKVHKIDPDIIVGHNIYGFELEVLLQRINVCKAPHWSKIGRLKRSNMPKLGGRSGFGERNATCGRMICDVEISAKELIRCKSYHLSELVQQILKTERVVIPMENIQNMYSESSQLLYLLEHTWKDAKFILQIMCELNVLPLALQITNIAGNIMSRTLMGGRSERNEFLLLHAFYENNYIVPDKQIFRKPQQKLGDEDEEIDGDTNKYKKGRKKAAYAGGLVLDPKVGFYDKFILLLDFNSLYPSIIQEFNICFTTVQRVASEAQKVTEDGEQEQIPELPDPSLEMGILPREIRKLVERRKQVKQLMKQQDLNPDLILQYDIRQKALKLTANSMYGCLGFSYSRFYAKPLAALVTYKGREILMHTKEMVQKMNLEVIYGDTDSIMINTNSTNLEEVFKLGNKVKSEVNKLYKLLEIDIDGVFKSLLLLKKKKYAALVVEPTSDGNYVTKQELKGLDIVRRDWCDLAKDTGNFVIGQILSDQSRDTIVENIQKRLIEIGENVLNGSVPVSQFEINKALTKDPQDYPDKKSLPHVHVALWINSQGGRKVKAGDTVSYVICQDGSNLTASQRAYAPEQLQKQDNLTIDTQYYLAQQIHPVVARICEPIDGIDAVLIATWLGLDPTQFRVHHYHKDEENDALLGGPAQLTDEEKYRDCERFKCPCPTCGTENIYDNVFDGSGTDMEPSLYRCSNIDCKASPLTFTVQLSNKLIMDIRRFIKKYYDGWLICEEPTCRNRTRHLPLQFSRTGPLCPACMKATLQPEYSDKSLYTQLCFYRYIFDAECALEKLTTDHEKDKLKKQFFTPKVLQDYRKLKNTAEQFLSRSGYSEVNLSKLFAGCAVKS
READOUT: Ki (nM)
Output spec: scalar in nM, unitless text.

Record request: Ki value, item O=C(O)c1cc(O)c(O)c(OC(=O)c2cc(O)c(O)c(O)c2)c1
830

---

test system: Rauscher murine leukemia virus; assay: Inhibition of Rauscher murine leukemia virus reverse transcriptase activity
The source made the active and inactive calls. The rule behind the calls is not given here.
Return exactly one item of y for active, n for inactive

Worked examples, 3 compounds total:
MOL	CATEGORY LABEL
O=C(Oc1cc(O)cc(O)c1C(=O)O)c1ccc(O)c(O)c1	n
COCCOCCOc1c(C(=O)Oc2cc(C(=O)O)cc(O)c2O)ccc(O)c1O	n
COCCOCCOc1c(O)ccc(C(=O)Oc2cc(C(=O)O)cc(O)c2O)c1O	n

# lookup: test call for O=C(O)c1cc(O)c(O)c(O)c1
n

# lookup: test call for COCCOCCOCCOC(=O)c1cc(O)c(O)c(OC(=O)c2ccc(O)c(O)c2O)c1
y

# lookup: test call for COCCOCCOC(=O)c1cc(O)c(O)c(O)c1
n

# lookup: test call for COCCOCCOCCOC(=O)c1cc(O)c(O)c(O)c1
n

# lookup: test call for COCCOCCOC(=O)c1cc(O)c(O)c(OC(=O)c2ccc(O)c(O)c2O)c1
y

Numbers sourced from ChEMBL document CHEMBL1137797.
